Each entry below carries its reported peptide exchange yield.
target-or-test-system: T1, HLA-A*02:01 (peptide-receptive MHC class I molecule of the UV-ligand exchange assay) (human)
T1 construct: MHC monomer first loaded with a UV-sensitive peptide (not identified) that is cleaved by UV light and exchanged for the test peptide; captured on streptavidin plates
test-method-notes: UV-ligand exchange, anti-b2m ELISA; peptide exchange yield grade (>=10% = +; >=20% = ++; >=50 = +++; >=75% = ++++)

GQDVGRYQV (synthetic peptide; source gene SSR4) [GQDVGRYQV (SEQ ID NO: 79)]    20 to 50%
NLREGDQLL (synthetic peptide; source gene AHNAK2) [NLREGDQLL (SEQ ID NO: 27)]    50 to 75%
SLDGFTIQV (synthetic peptide; source gene OAS2) [SLDGFTIQV (SEQ ID NO: 28)]    20 to 50%

Now for a further binder.
Req: Dear colleague, I am looking for the recorded peptide exchange yield of the following binder: SLNGNQVTV (synthetic peptide; source gene QSER1) [SLNGNQVTV (SEQ ID NO: 30)]
Resp: 10 to 20%
